Target protein (sequence): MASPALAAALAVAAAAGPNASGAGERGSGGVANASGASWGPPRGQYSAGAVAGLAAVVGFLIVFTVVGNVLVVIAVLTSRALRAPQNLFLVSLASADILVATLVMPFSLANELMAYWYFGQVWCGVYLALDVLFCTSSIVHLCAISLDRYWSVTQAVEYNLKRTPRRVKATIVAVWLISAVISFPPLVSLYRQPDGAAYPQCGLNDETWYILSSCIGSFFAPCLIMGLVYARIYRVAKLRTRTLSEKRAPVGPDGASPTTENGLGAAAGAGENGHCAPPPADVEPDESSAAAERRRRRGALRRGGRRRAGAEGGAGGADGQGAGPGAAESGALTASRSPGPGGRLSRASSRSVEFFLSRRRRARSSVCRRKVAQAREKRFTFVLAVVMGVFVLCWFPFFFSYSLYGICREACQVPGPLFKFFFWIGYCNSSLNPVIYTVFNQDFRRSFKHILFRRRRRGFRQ
MEASURED ATTRIBUTE: pKi
To interpret pKi, take it as minus log10 of a concentration measured in moles per litre.

1) COc1cccc(N(NC2=NCCN2)c2ccc(C)cc2)c1
8.42

Form: compound = `Cc1ccc(N(NC2=NCCN2)c2cccc(O)c2)cc1` ; pKi = 7.89

----------
- MEASUREMENT TARGET: Alpha-2A adrenergic receptor (Homo sapiens)
- Sequence (P08913 whole entry): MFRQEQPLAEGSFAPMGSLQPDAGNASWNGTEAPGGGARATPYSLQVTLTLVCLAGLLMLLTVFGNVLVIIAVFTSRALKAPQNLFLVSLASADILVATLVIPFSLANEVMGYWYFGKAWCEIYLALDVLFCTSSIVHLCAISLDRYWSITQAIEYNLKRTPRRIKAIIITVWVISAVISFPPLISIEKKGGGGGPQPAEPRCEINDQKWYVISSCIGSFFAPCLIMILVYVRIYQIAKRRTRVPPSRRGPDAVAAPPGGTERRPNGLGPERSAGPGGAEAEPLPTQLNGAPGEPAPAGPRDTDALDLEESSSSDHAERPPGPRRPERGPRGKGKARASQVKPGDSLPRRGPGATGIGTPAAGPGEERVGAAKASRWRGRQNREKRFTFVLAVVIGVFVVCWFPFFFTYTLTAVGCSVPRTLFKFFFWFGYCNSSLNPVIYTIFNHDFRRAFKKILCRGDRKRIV
- MEASUREMENT PROTOCOL: Binding affinity towards human alpha-2A adrenergic receptor expressed in Chinese Hamster ovary (CHO) cells
- Assay type: functional, cell-based
MEASURED ATTRIBUTE: Ki (µM)
Report as a plain number; the unit µM is understood.

So, `COc1cccc(N(NC2=NCCO2)c2ccc(C)cc2)c1` ? Its Ki was 24.6

----------
Kb reference
- MEASUREMENT TARGET: Alpha-1D adrenergic receptor (Rattus norvegicus) (UniProt P23944)
- Sequence (P23944 whole entry): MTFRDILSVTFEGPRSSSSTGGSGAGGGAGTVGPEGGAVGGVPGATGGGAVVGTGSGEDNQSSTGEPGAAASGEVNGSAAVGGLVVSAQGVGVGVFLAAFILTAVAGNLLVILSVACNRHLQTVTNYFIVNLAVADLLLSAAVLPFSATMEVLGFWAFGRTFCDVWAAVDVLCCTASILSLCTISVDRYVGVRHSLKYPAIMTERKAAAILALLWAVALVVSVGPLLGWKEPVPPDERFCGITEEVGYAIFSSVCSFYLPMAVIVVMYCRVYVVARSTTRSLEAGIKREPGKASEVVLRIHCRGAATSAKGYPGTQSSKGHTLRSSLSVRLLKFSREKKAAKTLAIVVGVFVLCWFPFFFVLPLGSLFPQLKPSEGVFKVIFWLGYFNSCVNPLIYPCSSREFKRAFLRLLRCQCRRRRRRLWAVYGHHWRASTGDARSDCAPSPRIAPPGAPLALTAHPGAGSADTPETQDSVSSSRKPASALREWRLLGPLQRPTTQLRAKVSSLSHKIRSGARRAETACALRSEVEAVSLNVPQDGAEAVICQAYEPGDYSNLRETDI
- MEASUREMENT PROTOCOL: Potency against alpha-1D adrenergic receptor is determined by phenylephrine-induced contractions in rat
- Type: functional
# output: bare number, implied unit nM

1. Cc1ccc(N(NC2=NCCN2)c2cccc(O)c2)cc1
2.9
2. Cc1ccc(N(NC2=NCCO2)c2cccc(O)c2)cc1
13000

`COc1cccc(N(NC2=NCCN2)c2ccc(C)cc2)c1` yielded Kb of 7.4

----------
Target sequence: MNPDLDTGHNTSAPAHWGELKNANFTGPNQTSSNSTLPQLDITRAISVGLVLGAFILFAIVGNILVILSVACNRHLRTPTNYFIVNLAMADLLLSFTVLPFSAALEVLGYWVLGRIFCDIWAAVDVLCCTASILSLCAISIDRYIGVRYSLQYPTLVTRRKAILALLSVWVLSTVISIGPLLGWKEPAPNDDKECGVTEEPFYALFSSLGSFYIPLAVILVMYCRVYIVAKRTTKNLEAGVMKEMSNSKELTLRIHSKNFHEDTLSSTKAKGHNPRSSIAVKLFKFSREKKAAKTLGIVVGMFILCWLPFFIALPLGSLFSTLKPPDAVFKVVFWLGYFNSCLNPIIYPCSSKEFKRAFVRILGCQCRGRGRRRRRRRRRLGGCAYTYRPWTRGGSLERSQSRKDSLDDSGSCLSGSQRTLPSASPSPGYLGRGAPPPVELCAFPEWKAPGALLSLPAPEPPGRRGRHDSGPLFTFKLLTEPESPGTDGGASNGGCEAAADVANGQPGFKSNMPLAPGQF
MEASURED ATTRIBUTE: pKi
Please treat pKi as minus the base-10 logarithm of the molar concentration.

1. Cc1ccc(N(NC2=NCCN2)c2cccc(O)c2)cc1
6.07

Notebook: `COc1cccc(N(NC2=NCCN2)c2ccc(C)cc2)c1` , pKi read as 6.99
